Molecular target: FAAH (Mus musculus, UniProt O08914)
Construct: Proteomes (mouse brain membrane fraction or cell lysates); from tissue; host or cells: mouse brain membrane fraction (or cell lysates, not specified)
Sequence (O08914 whole entry): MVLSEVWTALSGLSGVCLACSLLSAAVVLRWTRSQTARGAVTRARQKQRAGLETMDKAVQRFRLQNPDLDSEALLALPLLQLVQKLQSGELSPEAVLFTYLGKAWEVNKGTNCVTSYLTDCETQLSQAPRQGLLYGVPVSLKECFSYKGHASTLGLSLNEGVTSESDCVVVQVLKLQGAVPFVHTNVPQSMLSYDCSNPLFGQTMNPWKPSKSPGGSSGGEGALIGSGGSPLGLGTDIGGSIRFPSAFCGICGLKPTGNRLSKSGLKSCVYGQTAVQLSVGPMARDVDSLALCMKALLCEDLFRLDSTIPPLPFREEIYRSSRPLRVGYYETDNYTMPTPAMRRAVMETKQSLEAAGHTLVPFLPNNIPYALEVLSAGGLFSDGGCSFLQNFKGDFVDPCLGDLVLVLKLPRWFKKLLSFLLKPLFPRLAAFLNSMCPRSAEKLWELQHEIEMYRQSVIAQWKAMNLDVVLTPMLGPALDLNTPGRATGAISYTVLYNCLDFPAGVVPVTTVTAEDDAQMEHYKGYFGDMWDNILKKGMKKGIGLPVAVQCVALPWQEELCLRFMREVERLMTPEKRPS
Assay: In vitro competitive activity-based protein profiling (gel-based, FP-Rh or HT-01 probe)
Type: biochemical
Details: 1 μM inhibitor; read-out: % Inhibition at 1 μM, B = FAAH
quantity: inhibition at 1 µM

>>> result("Cc1cc(-c2ccccc2)ccc1CN1CCN(C(=O)n2cc(-c3ccccc3)cn2)CC1")
"> 75%"
>>> result("CN(CCN(C)S(C)(=O)=O)C(=O)n1cc(C#N)cn1")
"25 to 75%"
>>> result("CC(C)(C)OC(=O)N1CCN(C(=O)n2cccn2)CC1")
"> 75%"
>>> result("O=C(N1CCN(Cc2ccc(OCc3ccccc3)cc2)CC1)n1cccn1")
"> 75%"
>>> result("Cc1cnn(C(=O)N2CCN(Cc3ccccc3)CC2)c1")
"< 25%"
>>> result("CS(=O)(=O)N1CCN(C(=O)n2cc(C#N)cn2)CC1")
"< 25%"

query: // inhibition at 1 µM lookup, key: CN(CCN(C)C(=O)n1cccn1)C(=O)OC(C)(C)C
result: < 25%

query: // inhibition at 1 µM lookup, key: Cc1cnn(C(=O)N2CCCCC2)c1
result: < 25%

query: // inhibition at 1 µM lookup, key: O=C(N1CCN(C(c2ccc(Cl)cc2)c2ccc(Cl)cc2)CC1)n1cc(-c2ccccc2)cn1
result: < 25%

query: // inhibition at 1 µM lookup, key: O=C(c1cnn(C(=O)N2CCN(Cc3ccc4c(c3)OCO4)CC2)c1)N1CCOCC1
result: < 25%

query: // inhibition at 1 µM lookup, key: CS(=O)(=O)N1CCN(C(=O)n2cc(Cl)cn2)CC1
result: < 25%

query: // inhibition at 1 µM lookup, key: CN1CCN(C(=O)n2cc(Cl)cn2)CC1
result: < 25%

query: // inhibition at 1 µM lookup, key: O=C(N1CCN(Cc2ccc(C(F)(F)F)cc2)CC1)n1cc(Cl)cn1
result: > 75%

query: // inhibition at 1 µM lookup, key: O=C(c1ccccc1)N1CCN(C(=O)n2cc(Cl)cn2)CC1
result: < 25%

query: // inhibition at 1 µM lookup, key: N#Cc1cnn(C(=O)N2CCN(Cc3ccc4ccccc4c3)CC2)c1
result: > 75%

query: // inhibition at 1 µM lookup, key: O=C(N1CCN(Cc2cccc(Cl)c2)CC1)n1cc(Cl)cn1
result: > 75%
